Assay: Pharmacokinetics in female ICR mice
Conditions: female, ICR, mouse, plasma, po, 3 mg/kg
Observed Property: half-life

Compound	Value Observed
O=C1CCC(N2Cc3cc(N4CC5(CCN(CC6CCN(c7ccc([C@@H]8c9ccc(O)cc9OC[C@@H]8c8c(F)cccc8F)cc7F)CC6)CC5)C4)ccc3C2=O)C(=O)N1 (stereo partly drawn) [Example 65]	> 3.5 h
O=C1CCC(N2Cc3cc(N4CCN(CC5CCN(c6ccc([C@@H]7c8ccc(O)cc8CC[C@@H]7c7ccccc7)cc6)CC5)CC4)ccc3C2=O)C(=O)N1 (stereo partly drawn) [Control compound X, reference compound]	2.3 h
O=C1CCC(N2Cc3cc(N4CC5(CCN(CC6CCN(c7ccc([C@@H]8c9ccc(O)cc9OC[C@@H]8c8ccccc8F)cc7)CC6)CC5)C4)ccc3C2=O)C(=O)N1 (stereo partly drawn) [Example 89]	> 3.5 h
O=C1CCC(N2Cc3cc(N4CC5(CCN(CC6CCN(c7c(F)cc([C@@H]8c9ccc(O)cc9OC[C@@H]8c8c(F)cccc8F)cc7F)CC6)CC5)C4)ccc3C2=O)C(=O)N1 (stereo partly drawn) [Example 37]	> 3.5 h
O=C1CCC(N2Cc3cc(N4CC5(CCN(CC6CCN(c7ccc([C@@H]8c9ccc(O)cc9OC[C@@H]8c8c(F)cccc8F)cc7)CC6)CC5)C4)ccc3C2=O)C(=O)N1 (stereo partly drawn) [Example 63]	> 3.5 h

Kindly review the next compound as well.
Lab book: half-life of O=C1CCC(N2Cc3cc(N4CC5(CCN(CC6CCN(c7c(F)cc([C@@H]8c9ccc(O)cc9OC[C@@H]8c8ccccc8F)cc7F)CC6)CC5)C4)ccc3C2=O)C(=O)N1 (stereo partly drawn) [Example 32] noted as > 3.5 h

----------
Biological target: ER (Homo sapiens)
Construct: T47D breast cancer cells were subcultured in cell culture medium; endogenous in cells; host or cells: T47D breast cancer cells
Assay: Degradation activities on ER (Western blotting) in T47D breast cancer cells
Format: cell-based
Details: compound concentration 1 nM, 24 h, Western blot
Observed Property: Percentage reduction of ER (%)

Molecule	Observed Property	Value Observed
O=C1CCC(N2Cc3cc(N4CC5CN(CC6CCN(c7ccc([C@@H]8c9ccc(O)cc9OC[C@@H]8c8ccccc8)cc7)CC6)CC5C4)ccc3C2=O)C(=O)N1 (stereo partly shown) [Example 83]	Percentage reduction of ER	87

a. O=C1CCC(N2Cc3cc(N4CCC5(CC4)CN(CC4CCN(c6ccc([C@@H]7c8ccc(O)cc8OC[C@@H]7c7ccccc7)cc6)CC4)C5)ccc3C2=O)C(=O)N1 (stereo partly shown) [Example 58]
b. O=C1CCC(N2Cc3cc(N4CCC5(CCN(CC6CCN(c7ccc([C@@H]8c9ccc(O)cc9OC[C@@H]8c8ccccc8)cc7)CC6)C5)C4)ccc3C2=O)C(=O)N1 (stereo partly shown) [Example 8]
Between the two listed entries a and b , which has its Percentage reduction of ER at the higher number? To answer, give the label that identifies your chosen option.
a

P. O=C1CCC(N2Cc3cc(N4CC5CN(CC6CCN(c7ccc([C@@H]8c9ccc(O)cc9CC[C@@H]8c8ccccc8)cc7)CC6)CC5C4)ccc3C2=O)C(=O)N1 (stereo partly shown) [Example 26]
Q. O=C1CCC(N2C(=O)c3ccc(N4CCC5(CCN(CC6CCN(c7ccc([C@@H]8c9ccc(O)cc9CC[C@@H]8c8ccccc8)cc7)CC6)C5)C4)cc3C2=O)C(=O)N1 (stereo partly shown) [Example 53]
Please compare: P and Q . Report which one has the smaller Percentage reduction of ER value. # answer = label of selected item
Q
(Q: 39%, P: 56%)

----------
Biological target: ER (Homo sapiens, UniProt P03372)
Construct: T47D breast cancer cells were subcultured in cell culture medium; endogenous in cells; host or cells: T47D breast cancer cells
Test: Degradation activities on ER (ELISA) in T47D breast cancer cells
Assay type: cell-based
Settings: T47D cells, 24 h, ELISA; maximum percentage of target protein degraded; read-out: Dmax
Observed Property: Dmax

Here are 2 molecules together with their reported answers.
Molecule	Target Or Test System	Value Observed
O=C1CCC(N2Cc3cc(N4CC5CN(CC6CCN(c7ccc([C@@H]8c9ccc(O)cc9CC[C@@H]8c8ccccc8)cc7)CC6)CC5C4)ccc3C2=O)C(=O)N1 (stereo partly drawn)	ER (Homo sapiens, UniProt P03372)	50 to 75%
O=C1CCC(N2Cc3cc(N4CC5(CCN(CC6CCN(c7ccc([C@@H]8c9ccc(O)cc9OC[C@@H]8c8c(F)cccc8F)cc7)CC6)CC5)C4)ccc3C2=O)C(=O)N1 (stereo partly drawn)	ER (Homo sapiens, UniProt P03372)	50 to 75%

Now for another entry.
get_value(item= O=C1CCC(N2Cc3cc(N4CC5(CCN(CC6CCN(c7ccc([C@@H]8c9ccc(O)cc9OC[C@@H]8c8ccc(F)cc8)cc7)CC6)CC5)C4)ccc3C2=O)C(=O)N1 (stereo partly drawn) , readout=Dmax) returns 50 to 75%

----------
Biological target: ER (Homo sapiens)
Construct: T47D breast cancer cells were subcultured in cell culture medium; endogenous in cells; host or cells: T47D breast cancer cells
Assay: Degradation activities on ER (ELISA) in T47D breast cancer cells
Format: cell-based
Settings: T47D cells, 24 h, ELISA; concentration required to degrade 50% of the target protein
Observed Property: DC50

Compound	DC50
O=C1CC[C@@H](N2Cc3cc(N4CC5(CCN(CC6CCN(c7c(F)cc([C@@H]8c9ccc(O)cc9OC[C@@H]8c8c(F)cccc8F)cc7F)CC6)CC5)C4)ccc3C2=O)C(=O)N1 [Example 44]	> 100 nM
O=C1CCC(N2C(=O)c3ccc(N4CC(N5CCN(c6ccc([C@@H]7c8ccc(O)cc8CC[C@@H]7c7ccccc7)cc6)CC5)C4)cc3C2=O)C(=O)N1 (stereo partly drawn) [Example 55]	> 100 nM
O=C1CCC(N2Cc3cc(N4CC5(CCN(CC6CCN(c7c(F)cc([C@H]8c9ccc(O)cc9OC[C@H]8c8c(F)cccc8F)cc7F)CC6)CC5)C4)ccc3C2=O)C(=O)N1 (stereo partly drawn) [Example 41]	> 100 nM
O=C1CCC(N2Cc3cc(N4CC5(CCN(CC6CCN(c7c(F)cc([C@@H]8c9ccc(O)cc9OC[C@@H]8c8cccc(F)c8F)cc7F)CC6)CC5)C4)ccc3C2=O)C(=O)N1 (stereo partly drawn) [Example 49]	< 10 nM
O=C1CCC(N2Cc3cc(N4CC5(CCN(CC6CCN(c7c(F)cc(C8=C(c9c(F)cccc9F)COc9cc(OCc%10ccccc%10)ccc98)cc7F)CC6)CC5)C4)ccc3C2=O)C(=O)N1 (stereo not drawn) [Example 43]	> 100 nM

// field: DC50; key: O=C1CCC(N2Cc3cc(N4CCC(N5CC6(CCN(c7ccc([C@H]8c9ccc(O)cc9CC[C@H]8c8ccccc8F)cc7)CC6)C5)CC4)ccc3C2=O)C(=O)N1 (stereo partly drawn) [Example 21] ; value = > 100 nM

The value of DC50 measured for the compound O=C1CCC(N2Cc3cc(N4CC5(CCN(CC6CCN(c7ccc([C@@H]8c9ccc(O)cc9OC[C@@H]8c8ccc(F)cc8F)cc7)CC6)CC5)C4)ccc3C2=O)C(=O)N1 (stereo partly drawn) [Example 46] turned out to be 10 to 50 nM

For O=C1CCC(N2Cc3cc(N4CCC(N5CC6(CCN(c7ccc([C@@H]8c9ccc(O)cc9OC[C@@H]8c8ccccc8)cc7F)CC6)C5)CC4)ccc3C2=O)C(=O)N1 (stereo partly drawn) [Example 23] the compound record lists DC50 as 10 to 50 nM

// O=C1CCC(N2Cc3cc(N4CC5(CCN(CC6CCN(c7ccc([C@@H]8c9ccc(O)cc9OC[C@@H]8c8c(F)cccc8F)cc7F)CC6)CC5)C4)ccc3C2=O)C(=O)N1 (stereo partly drawn) [Example 65] : DC50 value = < 10 nM

response.value for O=C1CCC(N2Cc3cc(N4CC5(CCN(CC6CCN(c7ccc([C@H]8c9ccc(O)cc9OC[C@H]8c8c(F)cccc8F)cc7F)CC6)CC5)C4)ccc3C2=O)C(=O)N1 (stereo partly drawn) [Example 71] (field: DC50) = > 100 nM

Recorded result, O=C1CCC(N2Cc3cc(N4CC5CN(CC6CCN(c7ccc([C@@H]8c9ccc(O)cc9CC[C@@H]8c8ccccc8)cc7)CC6)CC5C4)ccc3C2=O)C(=O)N1 (stereo partly drawn) [Example 26] , DC50: < 10 nM

The compound listed as O=C1CCC(N2C(=O)c3ccc(N4CC5CN(CC6CCN(c7ccc([C@@H]8c9ccc(O)cc9CC[C@@H]8c8ccccc8)cc7)CC6)CC5C4)cc3C2=O)C(=O)N1 (stereo partly drawn) [Example 25] has a reported DC50 of > 100 nM

Entry O=C1CCC(N2Cc3cc(N4CC5(CCN(CC6CCN(c7ccc([C@@H]8c9ccc(O)cc9OC[C@@H]8c8cc(F)ccc8F)cc7)CC6)CC5)C4)ccc3C2=O)C(=O)N1 (stereo partly drawn) [Example 47] ; DC50 = 10 to 50 nM

The recorded DC50 for O=C1CC[C@@H](N2Cc3cc(N4CC5(CCN(CC6CCN(c7ccc([C@@H]8c9ccc(O)cc9OC[C@@H]8c8c(F)cccc8F)cc7F)CC6)CC5)C4)ccc3C2=O)C(=O)N1 [Example 74] is > 100 nM

# DC50 of O=C1CCC(N2Cc3cc(N4CCC(N5CC6(CCN(c7ccc([C@@H]8c9ccc(O)cc9CC[C@@H]8c8ccccc8F)cc7)CC6)C5)CC4)ccc3C2=O)C(=O)N1 (stereo partly drawn) [Example 22] = < 10 nM

The value of DC50 measured for the compound CC(C)C[C@H]1COc2cc(O)ccc2[C@H]1c1cc(F)c(N2CCC(CN3CCC4(CC3)CN(c3ccc5c(c3)CN(C3CCC(=O)NC3=O)C5=O)C4)CC2)c(F)c1 (stereo partly drawn) [Example 17] turned out to be < 10 nM

Value of measured DC50 for the entry O=C1CCC(N2Cc3cc(N4CC5(CCN(CC6CCN(c7ccc([C@H]8c9ccc(O)cc9OC[C@H]8c8cccc(F)c8F)cc7F)CC6)CC5)C4)ccc3C2=O)C(=O)N1 (stereo partly drawn) [Example 24] : > 100 nM

# compound O=C1CCC(N2Cc3cc(N4CC5(CCN(CC6CCN(c7c(F)cc(C8=C(c9ccccc9F)COc9cc(OCc%10ccccc%10)ccc98)cc7F)CC6)CC5)C4)ccc3C2=O)C(=O)N1 (stereo not drawn) [Example 52] ; its DC50 = > 100 nM

Sure, the documented DC50 for O=C1CCC(N2C(=O)c3ccc(N4CCC5(CCN(CC6CCN(c7ccc([C@@H]8c9ccc(O)cc9CC[C@@H]8c8ccccc8)cc7)CC6)C5)C4)cc3C2=O)C(=O)N1 (stereo partly drawn) [Example 53] is > 100 nM

So, O=C1CCC(N2Cc3cc(N4CCC(N5CC6(CCN(c7ccc([C@@H]8c9ccc(O)cc9OC[C@@H]8c8ccccc8F)cc7)CC6)C5)CC4)ccc3C2=O)C(=O)N1 (stereo partly drawn) [Example 14] ? Its DC50 was < 10 nM

According to the records, this compound O=C1CCC(N2Cc3cc(N4CC5(CCN(CC6CCN(c7c(F)cc([C@H]8c9ccc(O)cc9OC[C@H]8c8cccc(F)c8F)cc7F)CC6)CC5)C4)ccc3C2=O)C(=O)N1 (stereo partly drawn) [Example 39] displays DC50 of > 100 nM
